# System: CD2F1 mice, L1210 leukemia ip, survival T/C
# TEST_DETAILS: NCI In Vivo Anticancer Drug Screen. Data for tumor model L1210 Leukemia (intraperitoneal) in CD2F1 (CDF1) mice
# CONDITION_CONTEXT: endpoint: mean survival time; dose: 100.0 mg/kg/injection; schedule: Q01DX001 (ip); vehicle: saline with Tween-80; higher = longer survival
Toxic doses and inconclusive results are not listed.
MEASUREMENT_NAME: T/C

OCCN=Cc1c[nH]c2ccccc12
95 % of control
Cc1cc(=O)oc2cc(O)ccc12
94 % of control
Nc1cccc(CCc2ccc(-c3nc4ncnc(N)c4[nH]3)cc2)c1
86 % of control
CCCCCCCNC(=O)Nc1ccc(Cl)c(Cl)c1
103 % of control
Cc1cc(N(CCCOS(C)(=O)=O)CCCOS(C)(=O)=O)ccc1C=Nc1ccc(-c2csc(COc3ccccc3)n2)cc1
89 % of control

If you can, please state the reported T/C value of `O=C(CC1(Cl)C(F)(F)C(F)(F)C1(F)F)c1ccccc1` . 95 % of control

If you can, please state the reported T/C value of `FC(F)(F)c1cccc(NC2=NCCS2)c1` . 110 % of control

If you can, please state the reported T/C value of `C/C(=N/N(C)C)c1ccc2ccccc2c1` . 103 % of control

If you can, please state the reported T/C value of `O=C(/C(Br)=C/c1ccccc1[N+](=O)[O-])c1ccccc1` . 98 % of control

If you can, please state the reported T/C value of `CC(C)(C)C#C/C(=N\Nc1ccc([N+](=O)[O-])cc1[N+](=O)[O-])c1ccccc1` . 94 % of control

If you can, please state the reported T/C value of `O=C1/C(=C\c2ccc(Cl)cc2)SC(=S)N1/N=C/c1ccc(Cl)cc1` . 90 % of control

If you can, please state the reported T/C value of CCN(CC)C(=O)C(C)C1CCC2C3CC=C4CC(OC(=O)c5cc([N+](=O)[O-])cc([N+](=O)[O-])c5)CCC4(C)C3CCC12C (stereo unspecified) . 94 % of control

If you can, please state the reported T/C value of `FCCc1ccc(F)cc1` . 101 % of control

If you can, please state the reported T/C value of `O=C(O)c1cccc2[nH][nH]c(=O)c12` . 100 % of control

If you can, please state the reported T/C value of Cc1c2c(cc3c1CCC1(C)C3CCC1C(C)/C=C/C(C)C(C)C)CC(O)CC2 (stereo unspecified) . 92 % of control

If you can, please state the reported T/C value of CC(C)CCCC(C)C1CCC2C3C(=O)C4=CC(=O)CCC4(C)C3CCC12C (stereo unspecified) . 94 % of control

If you can, please state the reported T/C value of `O=C(C1=CN(CCCO)CCC1)c1cc2ccccc2[nH]1` . 94 % of control

If you can, please state the reported T/C value of `NC(=O)Cc1ccccc1[N+](=O)[O-]` . 104 % of control

If you can, please state the reported T/C value of `CC1(C)CC(=O)C=C(N2CCC(CCCC3CCN(C4=CC(=O)CC(C)(C)C4)CC3)CC2)C1` . 100 % of control

If you can, please state the reported T/C value of `O=C(C=C(C(F)(F)F)C(F)(F)F)c1cccc(S(=O)(=O)F)c1` . 107 % of control

If you can, please state the reported T/C value of `O=c1[nH]cc(Cc2cccc3ccccc23)c(=O)[nH]1` . 92 % of control

If you can, please state the reported T/C value of `Brc1sc(Br)c(Br)c1Br` . 109 % of control

If you can, please state the reported T/C value of CC12CCC3C4CCC(=O)C(CCC(=O)O)=C4CCC3(CO1)C2 (stereo unspecified) . 102 % of control

If you can, please state the reported T/C value of `O=[N+]([O-])c1cccc(/C=C/C2(CCl)OCCO2)c1` . 101 % of control

If you can, please state the reported T/C value of `O=C(Nc1ccc(NC(=O)c2ccccc2)c(Sc2ccccc2)c1Sc1ccccc1)c1ccccc1` . 89 % of control

If you can, please state the reported T/C value of `Cc1ccc(Cl)cc1NC(=O)c1c(Br)c(Br)c(Br)c(Br)c1C(=O)O` . 106 % of control

If you can, please state the reported T/C value of `CCN(CC)CCNc1ncnc(N)c1C(=C(C)C)c1ccc(Cl)cc1` . 94 % of control

If you can, please state the reported T/C value of `O=C(O)c1cccnc1[N+](=O)[O-]` . 93 % of control

If you can, please state the reported T/C value of `O=C1/C(=C\c2ccccc2)C2CCC(C2)/C1=C\c1ccccc1` . 91 % of control
